assay_info: Inhibition of Sodium/potassium-transporting ATPase in guinea pig brain peincubated for 5 mins followed by addition of ATP and measured after 15 mins
Assay type: tissue-based, Cavia porcellus
pIC50: −log10 of the molar value.
property_name: pIC50

[
  {
    "smiles_representation": "CC1=CCC[C@@H]2[C@@](C)(CC/C(C)=C/Cn3c[n+](C)c4ncnc(N)c43)[C@H](C)CC[C@@]12C",
    "observed_value": "4.54 to 4.96"
  }
]

----------
target: Sarcoplasmic/endoplasmic reticulum calcium ATPase 1 (Oryctolagus cuniculus)
assay_info: Inhibition of rabbit skeletal muscle microsomes SERCA1a
pKi: −log10 of the molar value.
property_name: pKi

[
  {
    "smiles_representation": "C/C=C/C/C(C)=C\\[C@@H]1OC(=O)C[C@H](O[C@@H]2O[C@H](CO)[C@@H](O)[C@H](OC)[C@H]2O)/C=C/C[C@H](OC)/C(C)=C/[C@@H](C)C[C@H]2C=C[C@H]1OO2",
    "property_name": "pKi",
    "observed_value": 7.74
  },
  {
    "smiles_representation": "C/C=C(/C)C(=O)O[C@H]1C(C)=C2[C@H]([C@@H]1OC(=O)CCCCCCC)[C@](C)(OC(C)=O)C[C@H](OC(=O)CCC)[C@@]1(O)[C@H]2OC(=O)[C@@]1(C)O",
    "property_name": "pKi",
    "observed_value": 7.96
  },
  {
    "smiles_representation": "C/C=C/C/C(C)=C\\[C@H]1C/C=C/C=C/C[C@H](C)/C=C(\\C)[C@@H](OC)C/C=C/[C@@H](O)CC(=O)O1",
    "property_name": "pKi",
    "observed_value": 7.77
  }
]

----------
The following molecules are listed with their measured IC50 values.
target: Sarcoplasmic/endoplasmic reticulum calcium ATPase 1 (Oryctolagus cuniculus, UniProt P04191)
Sequence (P04191 whole entry): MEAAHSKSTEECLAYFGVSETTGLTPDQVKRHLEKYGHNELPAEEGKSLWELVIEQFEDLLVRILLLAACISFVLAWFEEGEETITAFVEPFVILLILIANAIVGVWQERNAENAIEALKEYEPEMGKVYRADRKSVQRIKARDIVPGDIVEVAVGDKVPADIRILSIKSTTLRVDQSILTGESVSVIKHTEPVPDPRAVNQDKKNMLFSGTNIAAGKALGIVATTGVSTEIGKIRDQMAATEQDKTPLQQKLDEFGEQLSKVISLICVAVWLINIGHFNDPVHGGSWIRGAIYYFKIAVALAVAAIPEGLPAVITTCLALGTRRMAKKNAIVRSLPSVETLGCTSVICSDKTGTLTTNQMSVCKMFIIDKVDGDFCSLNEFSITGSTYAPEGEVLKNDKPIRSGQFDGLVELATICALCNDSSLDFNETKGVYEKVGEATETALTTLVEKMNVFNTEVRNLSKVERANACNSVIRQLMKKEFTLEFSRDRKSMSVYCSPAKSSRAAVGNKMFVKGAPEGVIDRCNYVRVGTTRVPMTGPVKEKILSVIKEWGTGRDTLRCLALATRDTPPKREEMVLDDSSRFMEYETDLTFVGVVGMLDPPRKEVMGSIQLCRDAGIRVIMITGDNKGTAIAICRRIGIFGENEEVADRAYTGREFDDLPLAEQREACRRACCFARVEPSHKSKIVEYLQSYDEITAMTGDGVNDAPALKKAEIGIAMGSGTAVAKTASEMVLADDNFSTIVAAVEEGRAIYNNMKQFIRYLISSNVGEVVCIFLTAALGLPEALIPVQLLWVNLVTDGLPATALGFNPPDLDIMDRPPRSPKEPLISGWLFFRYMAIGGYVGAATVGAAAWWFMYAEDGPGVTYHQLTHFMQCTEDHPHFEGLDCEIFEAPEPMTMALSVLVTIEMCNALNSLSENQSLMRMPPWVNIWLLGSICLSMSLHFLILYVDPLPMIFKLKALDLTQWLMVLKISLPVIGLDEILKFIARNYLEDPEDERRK
assay_info: Inhibition of SERCA1 in rabbit skeletal muscle microsomes assessed as decrease in NADH absorbance by NADH-coupled enzyme assay
Parameters: species or system Muscle tissue

[
  {
    "smiles_representation": "CCCCC/C=C\\C/C=C\\C/C=C\\C/C=C\\CCCC(=O)O[C@@H]1[C@@H](O)[C@@H](O)[C@H](OC[C@H]2O[C@@H](Oc3c(-c4ccc(O)c(O)c4)oc4cc(O)cc(O)c4c3=O)[C@H](O)[C@@H](O)[C@@H]2O)O[C@H]1C",
    "IC50, µM": 23
  },
  {
    "smiles_representation": "CCCCCCCCCCCCCCCCCC(=O)O[C@@H]1[C@@H](O)[C@@H](O)[C@H](OC[C@H]2O[C@@H](Oc3c(-c4ccc(O)c(O)c4)oc4cc(O)cc(O)c4c3=O)[C@H](O)[C@@H](O)[C@@H]2O)O[C@H]1C",
    "IC50, µM": 35
  },
  {
    "smiles_representation": "CCCCC/C=C\\C/C=C\\CCCCCCCC(=O)O[C@@H]1[C@@H](O)[C@@H](O)[C@H](OC[C@H]2O[C@@H](Oc3c(-c4ccc(O)c(O)c4)oc4cc(O)cc(O)c4c3=O)[C@H](O)[C@@H](O)[C@@H]2O)O[C@H]1C",
    "IC50, µM": 28
  }
]

----------
assay_info: Inhibition of porcine cerebellar microsomes SERCA2b incubated for 10 mins by enzyme-coupled method
Set-up: species or system Sus scrofa domesticus, Cerebellum
property_name: IC50 (nM)

[
  {
    "compound": "Clc1ccc(C(c2ccc(Cl)cc2)[n+]2ccn(CC(OCc3ccc(Cl)cc3Cl)c3ccc(Cl)cc3Cl)c2)cc1 (stereo unspecified) [CALMIDAZOLIUM CHLORIDE]",
    "observed_value": 500
  }
]

----------
target: Sodium/potassium-transporting ATPase
assay_info: Competitive inhibition of Sodium/potassium-transporting ATPase (unknown origin) by liquid scintillation counting method

[
  {
    "smiles_representation": "N=C(N)SCc1cc(CSC(=N)N)c(Br)c(CSC(=N)N)c1Br",
    "measurement_units": "nM",
    "Ki": 320
  }
]

----------
assay_info: Inhibition of SERCA in human PC3 cell microsomes by enzyme-coupled method
pIC50: −log10 of the molar value.

[
  {
    "smiles_representation": "Cc1ccc(-c2cc(C(F)(F)F)nn2-c2ccc(S(N)(=O)=O)cc2)cc1",
    "pIC50": 4.49
  }
]

----------
target: Sarcoplasmic/endoplasmic reticulum calcium ATPase 2 (Homo sapiens)
assay_info: Inhibition of human SERCA2b expressed in COS7 cells microsomal membranes preincubated for 10 mins followed by addition of ATP and measured after 40 mins by ELISA method
Type: cell-based
pIC50: −log10 of the molar value.
The following compounds are listed with their measured pIC50 values.
property_name: pIC50

[
  {
    "smiles_representation": "C/C=C(/C)C(=O)O[C@H]1C(C)=C2[C@H]([C@@H]1OC(=O)CCCCCCC)[C@](C)(OC(C)=O)C[C@H](OC(=O)CCC)[C@@]1(O)[C@H]2OC(=O)[C@@]1(C)O",
    "property_name": "pIC50",
    "observed_value": "4.92 to 6.68"
  },
  {
    "smiles_representation": "CC(C)(C)c1cc(O)c(C(C)(C)C)cc1O",
    "property_name": "pIC50",
    "observed_value": "5.15 to 5.70"
  },
  {
    "smiles_representation": "C/C(O)=C1\\C(=O)[C@@H]2[C@H]3c4c[nH]c5cccc(c45)C[C@H]3C(C)(C)N2C1=O",
    "property_name": "pIC50",
    "observed_value": "5.60 to 7.05"
  }
]

----------
target: Sarcoplasmic/endoplasmic reticulum calcium ATPase 2 (Homo sapiens, UniProt P16615)
Sequence (P16615 whole entry): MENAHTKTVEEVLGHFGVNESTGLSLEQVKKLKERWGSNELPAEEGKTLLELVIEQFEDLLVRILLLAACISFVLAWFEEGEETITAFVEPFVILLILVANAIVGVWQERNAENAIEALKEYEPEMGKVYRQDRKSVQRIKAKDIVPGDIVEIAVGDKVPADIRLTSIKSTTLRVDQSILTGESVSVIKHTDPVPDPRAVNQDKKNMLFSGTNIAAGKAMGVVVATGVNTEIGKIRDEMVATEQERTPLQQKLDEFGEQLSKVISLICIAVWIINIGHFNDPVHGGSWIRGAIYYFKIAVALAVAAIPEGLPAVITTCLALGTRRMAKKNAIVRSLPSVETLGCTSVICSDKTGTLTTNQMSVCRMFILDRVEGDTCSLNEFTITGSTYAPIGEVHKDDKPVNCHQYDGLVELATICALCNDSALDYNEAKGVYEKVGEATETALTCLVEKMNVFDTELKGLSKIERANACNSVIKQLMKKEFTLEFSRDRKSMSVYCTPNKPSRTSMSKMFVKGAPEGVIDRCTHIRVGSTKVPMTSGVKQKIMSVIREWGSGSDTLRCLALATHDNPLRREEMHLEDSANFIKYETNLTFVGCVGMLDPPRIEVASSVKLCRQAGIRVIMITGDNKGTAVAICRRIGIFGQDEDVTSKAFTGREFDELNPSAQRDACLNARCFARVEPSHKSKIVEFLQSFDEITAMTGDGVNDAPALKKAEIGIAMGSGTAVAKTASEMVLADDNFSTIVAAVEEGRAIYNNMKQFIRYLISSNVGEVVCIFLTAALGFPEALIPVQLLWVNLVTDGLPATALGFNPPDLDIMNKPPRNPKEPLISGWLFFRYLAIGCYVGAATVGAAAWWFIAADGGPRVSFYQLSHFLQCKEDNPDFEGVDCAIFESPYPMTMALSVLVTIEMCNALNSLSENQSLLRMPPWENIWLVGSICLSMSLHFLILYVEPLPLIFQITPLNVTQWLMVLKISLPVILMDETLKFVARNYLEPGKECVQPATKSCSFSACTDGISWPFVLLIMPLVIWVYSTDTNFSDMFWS
assay_info: Inhibition of SERCA2b in human platelet microsomes by enzyme-coupled method
pIC50: −log10 of the molar value.
property_name: pIC50

[
  {
    "smiles_representation": "CC(C)(O)[C@H]1O[C@H]2CC[C@@]3(C)[C@@](O)(CC[C@H]4Cc5c([nH]c6ccccc56)[C@@]43C)C2=CC1=O",
    "observed_value": 5.30
  }
]

----------
target: Sarcoplasmic/endoplasmic reticulum calcium ATPase 1 (Oryctolagus cuniculus)
assay_info: Inhibition of rabbit skeletal muscle microsomes SERCA1a
The following compounds are listed with their measured IC50 values.

[
  {
    "compound": "Cc1ccc(-c2cc(C(F)(F)F)nn2-c2ccc(S(N)(=O)=O)cc2)c(C)c1",
    "target": "Sarcoplasmic/endoplasmic reticulum calcium ATPase 1 (Oryctolagus cuniculus)",
    "IC50": "30 µM"
  },
  {
    "compound": "N=C(N)SCc1cc(CSC(=N)N)c(Br)c(CSC(=N)N)c1Br",
    "target": "Sarcoplasmic/endoplasmic reticulum calcium ATPase 1 (Oryctolagus cuniculus)",
    "IC50": "29 µM"
  },
  {
    "compound": "CCOC(=O)CC1C(C(=O)OCC)=C(N)Oc2ccc(-c3cc(OC)cc(OC)c3)cc21 (stereo not given)",
    "target": "Sarcoplasmic/endoplasmic reticulum calcium ATPase 1 (Oryctolagus cuniculus)",
    "IC50": "13.5 µM"
  },
  {
    "compound": "O=C1CSC(c2ccccc2Cl)c2cc(Cl)ccc2N1 (stereo not given)",
    "target": "Sarcoplasmic/endoplasmic reticulum calcium ATPase 1 (Oryctolagus cuniculus)",
    "IC50": "6.6 µM"
  },
  {
    "compound": "O=C(O[C@@H]1Cc2c(O)cc(O)cc2O[C@@H]1c1cc(O)c(O)c(O)c1)c1cc(O)c(O)c(O)c1 [EPIGALOCATECHIN GALLATE]",
    "target": "Sarcoplasmic/endoplasmic reticulum calcium ATPase 1 (Oryctolagus cuniculus)",
    "IC50": "12 µM"
  }
]

----------
target: Sarcoplasmic/endoplasmic reticulum calcium ATPase 3 (Homo sapiens, UniProt Q93084)
Sequence (Q93084 whole entry): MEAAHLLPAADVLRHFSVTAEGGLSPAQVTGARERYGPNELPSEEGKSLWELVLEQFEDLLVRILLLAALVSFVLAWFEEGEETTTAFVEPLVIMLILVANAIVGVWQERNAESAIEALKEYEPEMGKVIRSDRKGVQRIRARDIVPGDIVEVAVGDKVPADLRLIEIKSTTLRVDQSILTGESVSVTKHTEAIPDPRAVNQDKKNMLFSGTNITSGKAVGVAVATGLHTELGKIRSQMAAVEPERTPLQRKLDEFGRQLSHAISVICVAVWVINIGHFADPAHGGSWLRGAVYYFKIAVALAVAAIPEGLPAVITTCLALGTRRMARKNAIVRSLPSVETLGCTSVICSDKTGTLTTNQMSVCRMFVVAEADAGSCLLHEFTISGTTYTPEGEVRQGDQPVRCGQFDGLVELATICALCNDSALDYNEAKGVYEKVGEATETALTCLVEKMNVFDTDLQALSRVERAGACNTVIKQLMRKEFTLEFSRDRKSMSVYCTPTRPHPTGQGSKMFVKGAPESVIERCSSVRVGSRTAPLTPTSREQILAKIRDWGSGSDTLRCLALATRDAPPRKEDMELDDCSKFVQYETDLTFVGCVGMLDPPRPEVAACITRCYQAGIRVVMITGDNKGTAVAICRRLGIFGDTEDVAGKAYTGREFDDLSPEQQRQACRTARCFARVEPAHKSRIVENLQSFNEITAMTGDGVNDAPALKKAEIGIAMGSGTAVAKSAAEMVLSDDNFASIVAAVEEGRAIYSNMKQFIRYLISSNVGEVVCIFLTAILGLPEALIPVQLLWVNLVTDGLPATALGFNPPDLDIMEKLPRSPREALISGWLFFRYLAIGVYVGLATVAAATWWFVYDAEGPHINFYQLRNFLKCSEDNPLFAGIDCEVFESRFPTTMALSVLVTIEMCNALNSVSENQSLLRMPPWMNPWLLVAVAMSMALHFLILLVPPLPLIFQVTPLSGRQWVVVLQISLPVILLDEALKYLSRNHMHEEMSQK
assay_info: Inhibition of human SERCA3a expressed in COS7 cells microsomal membranes preincubated for 10 mins followed by addition of ATP and measured after 40 mins by ELISA method

[
  {
    "smiles_representation": "COc1cc(/C=C/C(=O)CC(=O)/C=C/c2ccc(O)c(OC)c2)ccc1O",
    "measurement_units": "µM",
    "Ki": 8.6
  }
]

----------
target: Sarcoplasmic/endoplasmic reticulum calcium ATPase 1 (Oryctolagus cuniculus)
assay_info: Inhibition of rabbit skeletal muscle microsomes SERCA1a by enzyme-coupled method
The following compounds are listed with their measured IC50 values.
property_name: IC50 (µM)

[
  {
    "compound": "CC(C)(O)[C@H]1O[C@H]2CC[C@@]3(C)[C@@](O)(CC[C@H]4Cc5c([nH]c6ccccc56)[C@@]43C)C2=CC1=O",
    "target": "Sarcoplasmic/endoplasmic reticulum calcium ATPase 1 (Oryctolagus cuniculus)",
    "observed_value": 5
  },
  {
    "compound": "CC(C)(c1ccc(O)cc1)c1ccc(O)cc1",
    "target": "Sarcoplasmic/endoplasmic reticulum calcium ATPase 1 (Oryctolagus cuniculus)",
    "observed_value": 2
  },
  {
    "compound": "CCOC(=O)CC1C(C(=O)OCC)=C(N)Oc2ccc(-c3ccccc3)cc21 (stereo unspecified)",
    "target": "Sarcoplasmic/endoplasmic reticulum calcium ATPase 1 (Oryctolagus cuniculus)",
    "observed_value": 23
  }
]
